# credit: patent US20160046579A1

# TGT: wt PKR (Homo sapiens, UniProt P30613)
# Sequence (P30613 whole entry): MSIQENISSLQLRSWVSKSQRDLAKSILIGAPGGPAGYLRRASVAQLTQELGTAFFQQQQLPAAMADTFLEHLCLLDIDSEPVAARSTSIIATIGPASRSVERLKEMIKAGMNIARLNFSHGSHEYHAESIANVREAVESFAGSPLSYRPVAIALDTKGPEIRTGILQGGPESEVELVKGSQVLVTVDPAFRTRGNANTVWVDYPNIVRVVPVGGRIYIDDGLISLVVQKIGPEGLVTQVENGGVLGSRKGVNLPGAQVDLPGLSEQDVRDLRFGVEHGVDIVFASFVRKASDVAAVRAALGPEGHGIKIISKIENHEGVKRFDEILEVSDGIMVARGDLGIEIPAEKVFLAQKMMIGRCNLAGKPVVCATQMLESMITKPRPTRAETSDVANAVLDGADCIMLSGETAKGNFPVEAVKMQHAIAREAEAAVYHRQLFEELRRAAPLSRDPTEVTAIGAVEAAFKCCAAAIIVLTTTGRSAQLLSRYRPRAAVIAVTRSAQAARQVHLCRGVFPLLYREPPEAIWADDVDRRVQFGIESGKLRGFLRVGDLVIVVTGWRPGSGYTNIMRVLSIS
# PROTOCOL_TEXT: PKR Mutant Assay, dose response (AC50), wild type PKR enzyme
# Type: biochemical
# DETAILS: wild type PKR enzyme
# Experimental: • PKR or PKR mutant enzyme solution was diluted in assay buffer. • 2 μL of test compound was added into wells first, and then 180 μL reaction mix was added. • Reactions mixture with test compound was assembled except for ADP, and plates were stored for 60 minutes at room temperature. • 20 uL ADP was added to start reaction at room temperature and reaction progress was measured as changes in absorbance at 340 nm wavelength at room temperature. […]
MEASURE: AC50

Worked examples follow.
CS(=O)(=O)CCC1(O)CCN(C(=O)c2ccc(NS(=O)(=O)c3cccc4scnc34)cc2)CC1 | 1010 to 10000 nM
CC(F)(F)CCC1(O)CCN(C(=O)c2ccc(NS(=O)(=O)c3cccc4nc(N)cnc34)cc2)CC1 | < 100 nM

### Prompt Given O=C1NCCC1CC1(O)CCN(C(=O)c2ccc(NS(=O)(=O)c3cccc4scnc34)cc2)CC1 (stereo not shown) , state its recorded AC50.
### Response 1010 to 10000 nM

### Prompt Would you mind doing CN1CCC(C2(CO)CCN(C(=O)c3ccc(NS(=O)(=O)c4cccc5scnc45)cc3)CC2)C1=O (stereo not shown) as well?
### Response 1010 to 10000 nM

### Prompt Would you mind doing Cc1n[nH]c(C)c1CC1(O)CCN(C(=O)c2ccc(NS(=O)(=O)c3cccc4scnc34)cc2)CC1 as well?
### Response < 100 nM

### Prompt Would you mind doing CC1(O)CCC(C2(O)CCN(C(=O)c3ccc(NS(=O)(=O)c4cccc5nccnc45)cc3)CC2)CC1 (stereo not shown) as well?
### Response 101 to 1000 nM

### Prompt Would you mind doing CC(C)(O)CCCC1(O)CCN(C(=O)c2ccc(NS(=O)(=O)c3cccc4nccnc34)cc2)CC1 as well?
### Response > 10000 nM
